Measured values drawn from the supplement of paper PMC9732359 for this set.

Assay summary: protein stability index of a GFP-peptide fusion (yeast GPS) (PSI 1-4); higher = more stable; sorted into four equal gates, so the index is relative within each strain
Test conditions: doa10∆
Assay metric: protein stability index

NNRSVSMQTIAETIILS [SRB5] = 2.02
PNFLIMQGKITKVLNMK [SMC2] = 2.73
ANLLPARQFGYVILTTS [RPS22A] = 1.29
ADINLEESIRESLQKRE [SIR3] = 3.4
LIESLNTIRQNVTSSGD [YML103C/NUP188] = 1.13
IPNLTAKPFQVTKEYFQ [FAS1] = 2.61
DSAAIIAATGLNQINGL [GRR1] = 2.85

---

Assay summary: protein stability index of a GFP-peptide fusion (yeast GPS) (PSI 1-4); higher = more stable; sorted into four equal gates, so the index is relative within each strain
Test conditions: san1∆
Listed here are sequences together with their documented protein stability index.
Assay metric: protein stability index

NSMDISMFSGLDSTGFD [MED2] = 3.21
SKEWFQLDDEDFDLLNK [FAS1] = 3.28
KALRRKIYINLALGSHN [SSN2] = 2.4
QLYFKKKVNYKVTSYDI [ISW2] = 2.7
ERLKQLTPNEIKELEHL [SWP82] = 2.73
ISVIETIRVVTENKIFV [RPN5] = 1.9
QLKNVQLDSYLVNGFSQ [MED2] = 2.24
DSSVEDSTDNENSGKEM [LIN1] = 3.41
EQKLVDLLKFENISLAE [BRR2] = 2.71
VLRIPEEYLDANVFRLE [MTW1] = 3.19
KLSQMILDKIFYGVLDQ [RPN6] = 2.92
ERLMISSDAFEVDVCDK [RET1] = 2.04
LGINLVTADTVILFDSD [ISW2] = 2.51
NNEMKSLQRSKSSFVKE [SMC1] = 3.03
RLEFDQDRDRFFLRDTL [SNF5] = 3.06
TINEMMKHLGRSEGNPV [FAS2] = 2.53
QIAKFVVGLGERVSPTD [RPT1] = 2.05
IPPPMPKNQQYRAFGSI [MED7] = 2.42
FEYVLYPSKTLKTDGVR [FAS2] = 2.26
IGMSLLMRTFLYTLAQE [SIR3] = 1.83
PNSNVELAGGNASLTIE [SMC1] = 2.95
ISNYNTKYTDDMATGSN [SRB8] = 3.21
VTKEYFQDVYDLTGSEP [FAS1] = 1.43
RLELAGQLISLLFEDLF [RET1] = 2.67
LTGEATANALPLPAVFS [RPL4A] = 2.35
PLELSAPIGKHYVVLDT [DIS3] = 2.63
NHNQFECKGCDNKIDIY [RPB2] = 3.06
FKIWHGEINKICMESLF [PCI8] = 1.42
LQLTTNTEQGDSDELGG [SNM1] = 3.29
KVEIKKVNSRDDSFFNE [PRP28] = 2.71
TNKDNKAELIKPIQNGE [ARP9] = 3.4
TDLHLPKKEYDDDAVRR [NSL1] = 1.42
LENFKSYAGKQVVGPFH [SMC4] = 2.98
IDSQMDEASGTPDEDML [GRR1] = 2.85
LYQTYHVLVGDLIKFSA [FAS1] = 2.39
KLTAERANLRKYREGQV [POP1] = 2.8
KKSKLISLYLLNLLSQN [RPN12] = 1.26
GKIRGVEDDLVTVQTEL [SMC2] = 2.48
GFSFGSQLGGNKTVNEA [YJL041W/NSP1] = 3.32
NSLLTIVWRFISENTFP [RPC34] = 2.08
SRFSPEKLAVSALEQAI [YGL100W/SEH1] = 1.9
SGQLNFEIDGDVIHFED [PCI8] = 2.53
LIIQYPPNNARRTYNTL [ISW2] = 2.43
FKGHSHIVQDCTLTADG [ASC1] = 2.06
LYPDSSSFKKNLLKFIT [RPN3] = 1.05
ENDEEDIYMHDVNSASK [RRP4] = 3.01
YYSLNIDYHKTAKETKM [RPN11] = 2.87
DPTKVTEFEFYLLEELE [SSN8] = 3.21
MAKVHGSLARAGKVKSQ [RPS30A] = 2.49
LANNVESKLRDDLERLK [RPS18A] = 2.97
LEKLIFDMTNHYNDSQQ [SRB8] = 2.47
TKAQQKTAEQIAAERAA [RPL7B] = 3.07
FNSVVNLSRYPKSGIDI [MTR3] = 2.82
QQQQQFRHHVQIQQQQQ [SNF5] = 1.45
VSSKCNDIHLRFMRFLA [ECM29] = 2.74
EPSYIFEYLATVMYQRR [PRE4] = 2.26
VEVDITLSPNVTDSSLL [GRR1] = 2.99
KVAPAPFGAKSTKSNKA [RPL8B] = 2.74
ESLKNLNESRSQHKKIL [SMC3] = 2.85
LTLYLFQDYLTQQAVNL [IRR1] = 2.06
ITDKTIESIVNLAPKLR [GRR1] = 1.83
